src = the supplement of paper PMC10567573

Please provide measured protein stability index for the entries that follow.
B1: ANKRD17 (parent)
chain: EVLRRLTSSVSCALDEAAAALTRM

Variants of: B1
Assay: protein stability index of a GFP-peptide fusion (GPS, HEK-293T) (PSI 1-6); higher = more stable;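 also: lentivirally expressed fusions sorted by FACS into six bins by GFP to DsRed ratio, PSI derived from sequencing read proportions per bin multiplied by bin number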
Conditions: c terminus: a fixed tail appended

Request: Find the recorded protein stability index belonging to EVLRRLTSSVSCCLDEAAAALTRM and report it.
Response: 2.58

Request: Please look up its protein stability index: EVLRRLTSSTSCALDEAAAALTRM
Response: 1.3

Request: Name the recorded protein stability index for EVLRRLTSSVACALDEAAAALTRM .
Response: 1.43

Request: Recorded protein stability index of EPLRRLTSSVSCALDEAAAALTRM , please.
Response: 2.43

Request: Recorded protein stability index of EVLRRLTSSVNCALDEAAAALTRM , please.
Response: 2.65

Request: // lookup protein stability index for EMLRRLTSSVSCALDEAAAALTRM
Response: 2.56

Request: State the recorded protein stability index for this entry: ETLRRLTSSVSCALDEAAAALTRM
Response: 2.79

Request: // protein stability index lookup, key: EVLRRLTSSVSCALNEAAAALTRM
Response: 3.18

Request: Need protein stability index of EVLRRLTSSVSCALDEAAAALMRM , thanks.
Response: 2.39

Request: Given the variant EVLRRLTSSVSCALDEAAAELTRM , what is its reported protein stability index?
Response: 3.31

Request: Requested field: protein stability index. Item: EVLRRLTSSVSCALDFAAAALTRM
Response: 3.12

Request: Recorded protein stability index of EVLRRLTSSVSCALDEAADALTRM , please.
Response: 1.83

Request: Which protein stability index is reported for this variant? EVLRRLTSSVSCAPDEAAAALTRM
Response: 1.93

Request: Find the recorded protein stability index belonging to EVLRRLTSSVSCALDEAAAALDRM and report it.
Response: 2.22

Request: Fill in: protein stability index of EVLRRLTSMVSCALDEAAAALTRM is ___
Response: 2.49

Request: Sample EVLRRLTSSVSCALDEANAALTRM — what was its protein stability index?
Response: 1.8

Request: Request the reported protein stability index associated with EVLRRLTSSVSCALEEAAAALTRM
Response: 2.2

Request: Which protein stability index is listed for EVLRRLTSSVSCANDEAAAALTRM ?
Response: 2.11

Request: Reported protein stability index for EVLRRATSSVSCALDEAAAALTRM : what is it?
Response: 2.11

Request: If you can, please state the reported protein stability index value of EVLRRLTSSVSCALMEAAAALTRM .
Response: 3.36

Request: Consider the variant shown here: RVLRRLTSSVSCALDEAAAALTRM What is its recorded protein stability index?
Response: 3.12

Request: # get_value(readout='protein stability index', item= EVLRRLTSSVSCALDIAAAALTRM )
Response: 1.97

Request: What measured protein stability index goes with EVARRLTSSVSCALDEAAAALTRM ?
Response: 1.83

Request: Query: protein stability index; subject: EVLRRLTVSVSCALDEAAAALTRM
Response: 2.27

Request: Need protein stability index, item EVLQRLTSSVSCALDEAAAALTRM
Response: 1.57

Request: Any idea what protein stability index was measured for EVTRRLTSSVSCALDEAAAALTRM ?
Response: 1.55

Request: What measured protein stability index goes with EVLRRLTSSVSCALDEAAAALTRY ?
Response: 1.43

Request: Look at this variant and give its reported protein stability index. EVLRRLTSSVSCALDEAAAALTRD
Response: 1.43

Request: Please report the recorded protein stability index for EVLRRLTSSVSCALDEADAALTRM .
Response: 1.89

Request: Consider the variant shown here: EVLRRLTSSVSCALDEAAAKLTRM What is its recorded protein stability index?
Response: 2.69

Request: Would you kindly share the measured protein stability index for EVLRFLTSSVSCALDEAAAALTRM ?
Response: 1.68

Request: Data request, read-out protein stability index, for EVLRRLISSVSCALDEAAAALTRM
Response: 2.06

Request: What value of protein stability index has been reported for the following variant? EVLRRWTSSVSCALDEAAAALTRM
Response: 2

Request: What value of measured protein stability index is listed for EVLRKLTSSVSCALDEAAAALTRM ?
Response: 4.55

Request: Field request: protein stability index | item: AVLRRLTSSVSCALDEAAAALTRM
Response: 2.07

Request: Any idea what protein stability index was measured for EVLRRLCSSVSCALDEAAAALTRM ?
Response: 2.05

Request: Give its protein stability index value. Item: EVPRRLTSSVSCALDEAAAALTRM
Response: 3.4

Request: What measured protein stability index goes with EVLRRLTSSVSCALDKAAAALTRM ?
Response: 1.54

Request: Given the entry EVLRRLTSSVSCATDEAAAALTRM , report its measured protein stability index.
Response: 2.77

Request: Entry EVLRRLTSSVSCALDEAAAALTVM : reported protein stability index = ?
Response: 1.02

Request: Give its protein stability index value. Item: EVMRRLTSSVSCALDEAAAALTRM
Response: 1.41

Request: Given the entry EVLRRLTSSVSCAMDEAAAALTRM , report its measured protein stability index.
Response: 2.81

Request: Returns the measured protein stability index for the input variant. Input: EVLRRLTSSVSCALDEAAAALTQM
Response: 1.74

Request: protein stability index lookup needed for EVLRPLTSSVSCALDEAAAALTRM , thanks.
Response: 2.02

Request: What measured protein stability index goes with EVLRRLTSSVSCALDEAAAALVRM ?
Response: 1.24

Request: Name the reported protein stability index value associated with the variant VVLRRLTSSVSCALDEAAAALTRM
Response: 2.42

Request: Consider the variant EVLRRLTSSGSCALDEAAAALTRM and give its measured protein stability index.
Response: 1.1

Request: I'd like to know its protein stability index. The variant in question is EVLRRLTSSVSCALDEAAAALTRR
Response: 2.72

Request: Which value of protein stability index has been reported for EVLRRLTSSVSCALDEAAAALTRS in the records?
Response: 2.42

Request: // protein stability index lookup, key: EVLRRLTSSVSCWLDEAAAALTRM
Response: 2.07

Request: If you can, please state the reported protein stability index value of EVLRRLTSSVSCALDEYAAALTRM .
Response: 2.49

Request: Request the reported protein stability index associated with EWLRRLTSSVSCALDEAAAALTRM
Response: 1.69

Request: So what does the record say about protein stability index for EVLRRLTSSVSCALDEAATALTRM ?
Response: 2.29

Request: Quick check: protein stability index of EVLRRLTSSVSCYLDEAAAALTRM ?
Response: 1.66

Request: // query protein stability index value for entry EVLRRLTSSVSCALDEAAACLTRM
Response: 2.73

Request: Field request: protein stability index | item: EVLRRLTSSVSCALDEAAADLTRM
Response: 1.65

Request: Can you look up the measured protein stability index of EILRRLTSSVSCALDEAAAALTRM for me?
Response: 2.4

Request: // protein stability index lookup, key: HVLRRLTSSVSCALDEAAAALTRM
Response: 2.67

Request: protein stability index lookup needed for EVLRRLTSSVSCKLDEAAAALTRM , thanks.
Response: 2.55

Request: Fill in the blank: the reported protein stability index of EVLRRLTSSVSCALDEAAARLTRM is ____.
Response: 2.64

Request: Reported protein stability index for EVLRRLTSSVSCALDHAAAALTRM : what is it?
Response: 1.8

Request: Reported protein stability index, variant EVLRRLTSSVSCAEDEAAAALTRM : ____
Response: 3.61

Request: Please look up its protein stability index: EVLRRLPSSVSCALDEAAAALTRM
Response: 2.52

Request: Item under review: EVLRRLTSSVSCALDEAMAALTRM . Reported protein stability index?
Response: 2.25

Request: Looking for the measured protein stability index of EVLRRLTSSVSCALDEAQAALTRM , can you help?
Response: 2.4

Request: // lookup protein stability index for EVLRRLTSSVSCALDEAFAALTRM
Response: 1.94

Request: Could you share which protein stability index value was measured for EVLRRLTSSVSCALDAAAAALTRM ?
Response: 2.32

Request: Recorded protein stability index for EVLRRLTSSVSCAHDEAAAALTRM , please?
Response: 2.13

Request: Please give the measured protein stability index for this variant: EVLRRLTSTVSCALDEAAAALTRM
Response: 1.66

Request: Reported protein stability index, variant EVLRRMTSSVSCALDEAAAALTRM : ____
Response: 1.76

Request: # protein stability index lookup, item EVLRRLTSSVSCALDEAAAALTRC
Response: 2.33

Request: Suppose we examine the variant EVLRRLTSSVFCALDEAAAALTRM ; what protein stability index value has been reported?
Response: 1.12

Request: State the recorded protein stability index for this entry: EVLRRLYSSVSCALDEAAAALTRM
Response: 2.2

Request: Entry EVLRRLTSSWSCALDEAAAALTRM has what protein stability index?
Response: 1.4

Request: // lookup protein stability index for EVLRRLTSSVSYALDEAAAALTRM
Response: 1.65

Request: Value lookup for protein stability index; key = EVLRRLTSSVSCALDEAAAALTKM
Response: 1.21

Request: Please give the measured protein stability index for this variant: EVLRRLTSSVSTALDEAAAALTRM
Response: 2.97

Request: // protein stability index lookup, key: EVLRRLTSSVSCSLDEAAAALTRM
Response: 1.34

Request: Can you look up the measured protein stability index of EVLRRLTSSVSCALDEAAGALTRM for me?
Response: 2.3

Request: What measured protein stability index goes with EVLRRLTSSVSCALDEAALALTRM ?
Response: 2.35

Request: // returns reported protein stability index for input EVLRRLTSSVSCALDEAAPALTRM
Response: 2.25

Request: Item EVGRRLTSSVSCALDEAAAALTRM has what recorded protein stability index?
Response: 3.68

Request: // protein stability index lookup, key: EVLRRLTSSVSCALDEAAAQLTRM
Response: 3.08

Request: Can you look up the measured protein stability index of EVLRRLTSSVSCALDEAAAALKRM for me?
Response: 1.86

Request: Return reported protein stability index; argument: EVLRRLTSSVSCALDEAKAALTRM
Response: 2.92

Request: What does the data say about its protein stability index? Entry: EVLRRLTSSVSCILDEAAAALTRM
Response: 2.26

Request: I would be grateful if you could share the reported protein stability index for EVLRRLTSSVSCALDEAAKALTRM .
Response: 2.6

Request: Recorded protein stability index of EVLRRLTTSVSCALDEAAAALTRM , please.
Response: 3

Request: # input variant: EVLRRLTSSVSCALDETAAALTRM ; wanted: its protein stability index
Response: 2.13

Request: Bench note: what protein stability index did EVLRRLTSSVSCALDEAAAALTHM show?
Response: 1.95

Request: Endpoint output: protein stability index of EVLRRPTSSVSCALDEAAAALTRM . Value?
Response: 2.38
